# target-of-assay: Luciferin 4-monooxygenase (Photinus pyralis)
# test-method-notes: FLuc inhibitory activity for the follow-up compounds in a biochemical assay with Km concentrations of substrate and 500microM CoASH
# experimental-parameters: purified FLuc, Km substrates + 500 uM CoASH, luminescence; series mostly up to 57.5 µM
Records with an inconclusive call do not appear. Activity calls are given as the source filed them. Calls follow the shape of the dose curve; as a rule, active = well fitted inhibition curve with a large enough effect; inconclusive = small, poorly fitted or top-dose-only effect; inactive = flat fitted curve, though single readings scatter.
Allowed answers: active, inactive

For orientation, consider the following solved cases.
{"input-smiles": "Nc1ccc(C(=O)Nc2ccccc2C(=O)O)cc1", "assigned-label": "active"}
{"input-smiles": "C/C(=N\\NC(=O)c1ccccc1NC(=O)c1ccc(Cl)cc1)c1ccncc1", "assigned-label": "active"}
{"input-smiles": "COc1ccc2nc(NC(=O)c3cccc(S(=O)(=O)N4CCOCC4)c3)sc2c1", "assigned-label": "active"}
{"input-smiles": "Cc1ccccc1C(=O)Nc1cccc(C(=O)Nc2ccccc2C(=O)O)c1", "assigned-label": "active"}

Which result was noted for this compound in the test: `O=C(Nc1ccccc1C(=O)O)c1ccc(NC(=O)C2CCCCC2)cc1`
active

Which result was noted for this compound in the test: `O=C(Nc1ccccc1-c1nc2ccccc2s1)c1ccc(Br)o1`
inactive

Which result was noted for this compound in the test: `Nc1ccc2nc(-c3ccccc3)sc2c1`
active

Which result was noted for this compound in the test: `Cc1ccc(C(=O)Nc2cccc(C(=O)O)c2)cc1S(=O)(=O)N1CCOCC1`
active

Which result was noted for this compound in the test: `Cc1ccc(C(=O)O/N=C(\N)c2ccccn2)c(Cl)c1`
active

Which result was noted for this compound in the test: `O=C(Nc1ccccc1C(=O)O)c1cccc(NC(=O)c2ccc(Br)o2)c1`
active

Which result was noted for this compound in the test: `CCOc1ccc2nc(NC(=O)c3ccoc3C)sc2c1`
active

###

For each record, write down the corresponding Potency.
# target-of-assay: Luciferin 4-monooxygenase (Photinus pyralis)
# test-method-notes: FLuc inhibitory activity for the follow-up compounds in a biochemical assay with Km concentrations of substrate and 500microM CoASH
# experimental-parameters: purified FLuc, Km substrates + 500 uM CoASH, luminescence; series mostly up to 57.5 µM
Records with an inconclusive call do not appear. Calls of active or inactive are those of the source. The call rests on the fitted dose curve; in most records, active means well fitted inhibition curve with a large enough effect; inconclusive means small, poorly fitted or top-dose-only effect; inactive means flat fitted curve, though single readings scatter.

Example entries begin here.
{"input-smiles": "O=C(Nc1ccccc1C(=O)O)c1ccccc1", "Potency": "23.1 µM (active)"}
{"input-smiles": "Cc1cccc(C(=O)Nc2ccc(-c3nc4ccccc4s3)cc2Cl)c1", "Potency": "18.3 µM (active)"}

Turning to the following compound.
Give reported Potency for `Cc1cccc(C(=O)Nc2ccccc2C(=O)Nc2ccc(C(=O)O)cc2)c1` (Luciferin 4-monooxygenase (Photinus pyralis))
5.8 µM (active)

###

# target-of-assay: Luciferin 4-monooxygenase (Photinus pyralis)
# test-method-notes: FLuc inhibitory activity for the follow-up compounds in a biochemical assay with Km concentrations of substrate and 500microM CoASH
# experimental-parameters: purified FLuc, Km substrates + 500 uM CoASH, luminescence; series mostly up to 57.5 µM
Inconclusive results are not listed. Calls of active or inactive are those of the source. The call rests on the fitted dose curve; in most records, active means well fitted inhibition curve with a large enough effect; inconclusive means small, poorly fitted or top-dose-only effect; inactive means flat fitted curve, though single readings scatter.
property: Potency

{"input-smiles": "Nc1ccccc1-c1nc2ccccc2s1", "property": "Potency", "observed": "3.26 µM (active)"}
{"input-smiles": "COc1ccc(C(=O)Nc2ccccc2C(=O)N/N=C/c2ccc(O)c(OC)c2)cc1", "property": "Potency", "observed": "0.0037 µM (active)"}
{"input-smiles": "O=C(Nc1ccccc1C(=O)O)c1cccc(NC(=O)c2ccccc2Br)c1", "property": "Potency", "observed": "14.6 µM (active)"}
{"input-smiles": "Nc1ccc2nc(-c3ccc(O)cc3)sc2c1", "property": "Potency", "observed": "0.146 µM (active)"}
{"input-smiles": "Cc1c(NS(C)(=O)=O)cccc1-c1nc2ccccc2s1", "property": "Potency", "observed": "3.66 µM (active)"}

Give measured Potency for every item shown.
1. O=C(Nc1ccccc1C(=O)O)c1cccc(NC(=O)c2ccccc2Cl)c1
2. O=C(O)c1cccc(NC(=O)c2ccc(Cl)c(S(=O)(=O)N3CCCCCC3)c2)c1
3. CCOc1ccc2nc(NC(=O)Cc3cccs3)sc2c1
4. O=C(Nc1ccccc1C(=O)O)c1cc(S(=O)(=O)Nc2ccccc2)ccc1Cl
5. Cc1c(NC(=O)c2cc(-n3cnnc3)ccc2Cl)cccc1-c1nc2ccccc2s1
6. COc1ccccc1C(=O)Nc1ccc(C(=O)O)cc1

["14.6 µM (active)", "2.91 µM (active)", "5.8 µM (active)", "inactive", "0.231 µM (active)", "inactive"]

###

# target-of-assay: Luciferin 4-monooxygenase (Photinus pyralis) (UniProt P08659)
# Sequence (P08659 whole entry, looked up): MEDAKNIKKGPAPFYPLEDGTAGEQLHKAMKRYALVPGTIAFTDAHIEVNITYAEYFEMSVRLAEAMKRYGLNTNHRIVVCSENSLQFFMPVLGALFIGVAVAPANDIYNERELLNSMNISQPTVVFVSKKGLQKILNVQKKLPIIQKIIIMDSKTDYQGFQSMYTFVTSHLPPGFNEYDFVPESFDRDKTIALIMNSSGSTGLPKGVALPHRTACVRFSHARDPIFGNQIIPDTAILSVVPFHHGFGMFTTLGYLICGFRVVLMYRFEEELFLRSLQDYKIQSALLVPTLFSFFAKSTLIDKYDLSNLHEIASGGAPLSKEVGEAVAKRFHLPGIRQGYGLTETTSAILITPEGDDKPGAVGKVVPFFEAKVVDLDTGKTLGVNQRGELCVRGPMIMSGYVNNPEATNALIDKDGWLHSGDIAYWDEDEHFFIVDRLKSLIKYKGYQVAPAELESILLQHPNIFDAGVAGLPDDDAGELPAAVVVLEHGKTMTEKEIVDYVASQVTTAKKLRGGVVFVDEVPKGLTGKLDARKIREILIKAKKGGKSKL
# test-method-notes: FLuc inhibitory activity for the follow-up compounds in a biochemical assay with Km concentrations of substrate and 500microM CoASH
# experimental-parameters: purified FLuc, Km substrates + 500 uM CoASH, luminescence; series mostly up to 57.5 µM
Records with an inconclusive call do not appear. Calls of active or inactive are those of the source. Calls come from the whole dose curve; as a rule, active = well fitted inhibition curve with a large enough effect; inconclusive = small, poorly fitted or top-dose-only effect; inactive = flat fitted curve, though single readings scatter.
Allowed answers: active, inactive

For orientation, consider the following solved cases.
{"input-smiles": "COc1ccc2nc(NC(=O)Cc3cccs3)sc2c1", "assigned-label": "active"}
{"input-smiles": "COc1ccc2nc(NC(=O)c3ccco3)sc2c1", "assigned-label": "active"}
{"input-smiles": "Nc1ccc(-c2nc3ccc(C(=O)O)cc3s2)cc1", "assigned-label": "active"}
{"input-smiles": "CC(=O)Oc1ccc(C(=O)Nc2ccccc2C(=O)Nc2ccc(C(=O)O)cc2)cc1", "assigned-label": "active"}
{"input-smiles": "CCc1noc(C)c1C(=O)Nc1nc2ccc(OC)cc2s1", "assigned-label": "active"}
{"input-smiles": "O=C(O)c1ccc(NC(=O)c2ccccc2NC(=O)c2cccc(Br)c2)cc1", "assigned-label": "active"}
{"input-smiles": "CCOc1ccc2nc(NC(=O)c3cccnc3)sc2c1", "assigned-label": "active"}
{"input-smiles": "CC(=O)Nc1cccc(-c2nc3ccccc3s2)c1C", "assigned-label": "active"}

Which result was noted for this molecule in the test: `O=C(O)c1cccc(NC(=O)c2ccccc2NC(=O)c2ccccc2F)c1`
active

Which result was noted for this molecule in the test: `Cc1ccc(S(=O)(=O)N2CCOCC2)cc1C(=O)Nc1ccccc1C(=O)O`
inactive

Which result was noted for this molecule in the test: `CCOc1ccc(C(=O)Nc2cccc(C(=O)O)c2)cc1Cl`
active

Which result was noted for this molecule in the test: `Cc1c(NC(=O)c2cccs2)cccc1-c1nc2ccccc2s1`
active

Which result was noted for this molecule in the test: `Nc1ccc(-c2nc3cc(N)ccc3s2)cc1`
active

Which result was noted for this molecule in the test: `CN(C)S(=O)(=O)c1ccc(C(=O)Nc2ccccc2C(=O)O)cc1`
active

Which result was noted for this molecule in the test: `COc1ccc2nc(NC(=O)c3cnccn3)sc2c1`
active

###

# target-of-assay: Luciferin 4-monooxygenase (Photinus pyralis)
# test-method-notes: FLuc inhibitory activity for the follow-up compounds in a biochemical assay with Km concentrations of substrate and 500microM CoASH
# experimental-parameters: purified FLuc, Km substrates + 500 uM CoASH, luminescence; series mostly up to 57.5 µM
Records with an inconclusive call do not appear. Calls of active or inactive are those of the source. Calls come from the whole dose curve; as a rule, active = well fitted inhibition curve with a large enough effect; inconclusive = small, poorly fitted or top-dose-only effect; inactive = flat fitted curve, though single readings scatter.
Allowed answers: y = active, n = inactive

For orientation, consider the following solved cases.
{"input-smiles": "COc1ccc(C(=O)Nc2ccccc2C(=O)Nc2ccc(C(=O)O)cc2)cc1", "assigned-label": "y"}
{"input-smiles": "COc1ccc(C(=O)Nc2nc3ccc(OC)cc3s2)cc1", "assigned-label": "y"}
{"input-smiles": "O=C(Nc1c(Cl)cc(Cl)cc1-c1nc2ccccc2s1)c1ccc(Br)o1", "assigned-label": "n"}
{"input-smiles": "Cc1ccc2sc(-c3ccc(N)cc3)nc2c1", "assigned-label": "y"}
{"input-smiles": "O=C(O)c1ccc(NC(=O)c2cccc(NC(=O)c3cccs3)c2)cc1", "assigned-label": "y"}

Let us examine a further case.
Which result was noted for this compound in the test: `O=C(COC(=O)c1ccccc1[N+](=O)[O-])c1ccc2c(c1)OCO2`
y

###

# target-of-assay: Luciferin 4-monooxygenase (Photinus pyralis) (UniProt P08659)
# test-method-notes: FLuc inhibitory activity for the follow-up compounds in a biochemical assay with Km concentrations of substrate and 500microM CoASH
# experimental-parameters: purified FLuc, Km substrates + 500 uM CoASH, luminescence; series mostly up to 57.5 µM
Records with an inconclusive call do not appear. The source made the active and inactive calls. Calls come from the whole dose curve; as a rule, active = well fitted inhibition curve with a large enough effect; inconclusive = small, poorly fitted or top-dose-only effect; inactive = flat fitted curve, though single readings scatter.
property: Potency

Example entries begin here.
{"input-smiles": "Oc1ccc(-c2nc3ccccc3s2)c(O)c1", "target-of-assay": "Luciferin 4-monooxygenase (Photinus pyralis) (UniProt P08659)", "Potency": "1.83 µM (active)"}
{"input-smiles": "CCOc1ccc(C(=O)Nc2ccccc2C(=O)O)cc1", "target-of-assay": "Luciferin 4-monooxygenase (Photinus pyralis) (UniProt P08659)", "Potency": "0.41 µM (active)"}
{"input-smiles": "Cc1cccc(NS(=O)(=O)c2cccc(C(=O)Nc3cccc(C(=O)O)c3)c2)c1", "target-of-assay": "Luciferin 4-monooxygenase (Photinus pyralis) (UniProt P08659)", "Potency": "inactive"}
{"input-smiles": "Cn1c(N/N=C/c2cc3ccccc3nc2Cl)nc2ccccc21", "target-of-assay": "Luciferin 4-monooxygenase (Photinus pyralis) (UniProt P08659)", "Potency": "0.0231 µM (active)"}
{"input-smiles": "O=C(Nc1ccccc1C(=O)O)c1cc(S(=O)(=O)NCc2ccccc2)ccc1Cl", "target-of-assay": "Luciferin 4-monooxygenase (Photinus pyralis) (UniProt P08659)", "Potency": "inactive"}

Give measured Potency for every item shown.
1. COc1ccc(C(=O)Nc2ccccc2C(=O)Nc2ccccc2C(=O)O)cc1
2. COc1ccc2nc(NC(=O)c3ccc([N+](=O)[O-])o3)sc2c1
3. O=C(Nc1ccccc1-c1nc2ccccc2s1)c1cccnc1
4. COc1ccc(NS(=O)(=O)c2cccc(C(=O)Nc3ccccc3C(=O)O)c2)cc1
5. CCCC(=O)Nc1nc2ccc(OCC)cc2s1

1. 0.116 µM (active)
2. 1.16 µM (active)
3. inactive
4. inactive
5. 10.3 µM (active)

Give measured Potency for every item shown.
1. O=C(Nc1cccc(-c2nc3ccccc3s2)c1)c1cc(-n2cnnc2)ccc1Cl
2. CCOc1ccc2nc(NC(=O)c3ccccn3)sc2c1
3. CN=c1scc(-c2ccccc2F)n1/N=C/c1ccc[nH]1

1: 3.66 µM (active); 2: 0.163 µM (active); 3: 0.0163 µM (active)

Give measured Potency for every item shown.
1. O=C(O)c1ccccc1NC(=O)c1ccccc1Nc1ccccc1
2. Cc1ccc2nc(-c3ccc(NC(=O)CN4CCN(C(=O)c5ccco5)CC4)cc3)sc2c1
3. COc1ccc2nc(NC(=O)c3ccccc3C(=O)O)sc2c1

9.19 µM (active)
3.66 µM (active)
6.51 µM (active)
